System: Staphylococcus aureus
Assay: Antibacterial activity against tetracycline/methicillin-resistant Staphylococcus aureus XU212 after 16 hrs by microdilution method
Assay type: functional
Conditions: XU212, 16 h
As shown below, each of these compounds has a reported MIC value.
assayReadout: MIC

{"compound": "O=C(O)/C(O)=C/C(=O)c1ccc(N2CCCC2)cc1", "recordedMeasurement": "> 128 µg/mL"}
{"compound": "CCn1cc(C(=O)O)c(=O)c2cc(F)c(N3CCNCC3)cc21 [NORFLOXACIN]", "recordedMeasurement": "> 128 µg/mL"}
{"compound": "O=C(O)/C(O)=C/C(=O)c1cc(C2CCCCC2)ccc1C1CCCCC1", "recordedMeasurement": "11 µM"}
{"compound": "CC(C)c1ccc(C(C)C)c(C(=O)/C=C(\\O)C(=O)O)c1", "recordedMeasurement": "464 µM"}
{"compound": "O=C(O)CCC(=O)c1ccc(-c2ccccc2)cc1 [FENBUFEN]", "recordedMeasurement": "> 128 µg/mL"}

Hello, the source for this data is ChEMBL document CHEMBL4138171, in case you need it.
